experimentalTarget: P2Y purinoceptor 14 (Homo sapiens)
assayRemarks: Agonist activity at human P2Y14 receptor expressed in […] cells
Format: functional, cell-based, COS-7
I'd appreciate it if you could supply pEC50 values for the items below.
Give bare numbers, as −log10 of the molar value.

1. O=c1ccn([C@@H]2O[C@H](COP(=O)(O)OP(=O)(O)OC[C@H]3O[C@H](O)[C@@H](O)[C@@H]3O)[C@@H](O)[C@H]2O)c(=O)[nH]1	6.34

Each compound below has a reported value. Please supply its pEC50.
1. O=c1ccn([C@@H]2O[C@H](COP(=O)(O)OP(=O)(O)OC[C@H]3O[C@H](O)[C@H](O)[C@@H](O)[C@@H]3O)[C@@H](O)[C@H]2O)c(=O)[nH]1
2. C[C@H]1O[C@H](OP(=O)(O)OP(=O)(O)OC[C@H]2O[C@@H](n3ccc(=O)[nH]c3=O)[C@H](O)[C@@H]2O)[C@H](O)[C@@H](O)[C@H]1O
3. O=c1ccn([C@@H]2O[C@H](COP(=O)(O)OP(=O)(O)O[C@H]3O[C@H](CF)[C@@H](O)[C@H](O)[C@H]3O)[C@@H](O)[C@H]2O)c(=O)[nH]1
4. O=c1ccn([C@@H]2O[C@H](COP(=O)(O)OP(=O)(O)OC[C@H]3O[C@](O)(CO)[C@@H](O)[C@@H]3O)[C@@H](O)[C@H]2O)c(=O)[nH]1
5. O=c1ccn([C@@H]2O[C@H](COP(=O)(O)OP(=O)(O)OC[C@H]3O[C@H](O)[C@H](O)[C@@H]3O)[C@@H](O)[C@H]2O)c(=O)[nH]1
6. O=c1[nH]c(=S)ccn1[C@@H]1O[C@H](COP(=O)(O)OP(=O)(O)O[C@H]2O[C@H](CO)[C@@H](O)[C@H](O)[C@H]2O)[C@@H](O)[C@H]1O
7. CC(C)(C)OC(=O)NCCNC(=O)[C@H]1O[C@H](OP(=O)(O)OP(=O)(O)OC[C@H]2O[C@@H](n3ccc(=O)[nH]c3=O)[C@H](O)[C@@H]2O)[C@H](O)[C@@H](O)[C@@H]1O

Out:
1: 6.43; 2: 6.25; 3: 6.04; 4: 6.49; 5: 6.62; 6: 6.54; 7: 6.02

====

experimentalTarget: P2Y purinoceptor 14 (Homo sapiens) (UniProt Q15391)
Sequence (whole entry): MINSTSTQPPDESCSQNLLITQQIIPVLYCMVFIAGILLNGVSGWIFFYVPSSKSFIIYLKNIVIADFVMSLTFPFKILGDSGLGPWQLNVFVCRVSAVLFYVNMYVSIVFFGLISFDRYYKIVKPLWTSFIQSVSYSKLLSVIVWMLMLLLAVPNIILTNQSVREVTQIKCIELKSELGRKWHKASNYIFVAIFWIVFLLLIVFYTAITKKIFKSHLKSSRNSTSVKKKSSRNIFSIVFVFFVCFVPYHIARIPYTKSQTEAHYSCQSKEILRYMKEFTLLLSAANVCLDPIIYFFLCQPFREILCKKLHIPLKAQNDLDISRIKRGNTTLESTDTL
assayRemarks: Agonist activity at human P2Y14 receptor expressed in […] cells at 10 uM
Assay type: functional, cell-based
cond: COS-7
resultType: Efficacy

Recorded Efficacy, per entry:
1) CO/N=c1/ccn([C@@H]2O[C@H](COP(=O)(O)OP(=O)(O)O[C@H]3O[C@H](CO)[C@@H](O)[C@H](O)[C@H]3O)[C@@H](O)[C@H]2O)c(=O)[nH]1	< 50%
2) O=c1ccn([C@@H]2C[C@H](COP(=O)(O)OP(=O)(O)O[C@H]3O[C@H](CO)[C@@H](O)[C@H](O)[C@H]3O)[C@@H](O)[C@H]2O)c(=O)[nH]1	< 20%

Each compound below has a reported value. Please supply its Efficacy.
1. O=c1ccn([C@@H]2O[C@H](COP(=O)(O)OP(=O)(O)OC[C@H]3O[C@H](O)C[C@@H](O)[C@@H]3O)[C@@H](O)[C@H]2O)c(=O)[nH]1
2. CC(=O)N[C@@H]1[C@@H](O)[C@H](O)[C@@H](CO)O[C@@H]1CP(=O)(O)OP(=O)(O)OC[C@H]1O[C@@H](n2ccc(=O)[nH]c2=O)[C@H](O)[C@@H]1O

Out:
< 50%
< 50%
